Entry source: the array DNA melting data of Ke et al. (doi:10.1101/2024.01.08.574731)

protocol: melting temperature; fluorescence melt of hairpins on a sequencing array, two-state fit, raised by 9.35 °C to match UV melts
condition: sodium 0.088 M
Please use condition met whenever Tm is not below 40 °C, and condition not met whenever it is.

{"seqString": "GATCAGTGACCTGATC ((((((....))))))", "labelValue": "condition met"}
{"seqString": "GTATTGGGAAACCAACAC ((.((((....)))).))", "labelValue": "condition not met"}
{"seqString": "GATCTGCAGGCAGATC ((((((....))))))", "labelValue": "condition met"}

Next sequence, please.
Does the sequence GTACCGGGAAACCGACAC ((..(((....)))..)) have recorded Tm that is 40 °C or more?
condition not met
